Reported normalized growth by item:
assay: chemical genetic growth profiling, strain panel (AID 1159580);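 also: tested at 20 µM; growth read once vehicle control cultures reached saturation at 30 °C; 1 = growth at the plate median or of vehicle wells; lower values mean less growth of the strain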; settings: S. cerevisiae deletion strains, growth OD, locus YHR079C, strain IRE1 (second series), hits give low values
About 2,000 (36%) of roughly 5,500 compounds were called active. About 18% were inconclusive and are not listed. This is one part of the list. Where a SMILES comes first, the peptide text is derived from it.
Kindly provide the number alone.

Compound	normalized growth
C[C@H](N)[C@H](O)c1cccc(O)c1	0.999
C[C@H](N)[C@H](O)c1ccccc1	0.997
NCCCCC(N)C(=O)NC(Cc1ccc(O)cc1)C(=O)NC(CCCCN)C(=O)O (stereo not drawn) (H-Lys-Tyr-Lys-OH; configuration not given here)	1
CCC(=O)Nc1ccc(Cl)c(Cl)c1	0.999

We next turn to a different compound, shown below.
Note to self: normalized growth recorded for C[C@@H](N)[C@@H](O)c1ccccc1 was 0.993

----------
Overview of reported normalized growth across a group of compounds:
experiment: chemical genetic growth profiling, strain panel (AID 1159580); conditions: S. cerevisiae deletion strains, growth OD, locus YLR403W, strain SFP1, hits give low values
Among all 5,500 compounds or so, about 2,000 (36%) were called active. About 18% were inconclusive and are not listed. This is one part of the list.
Lab note: record the figure alone, no unit after it.

Recorded results for 4 compounds are shown here.
Compound	Reported Result
NNC(=O)c1csc(Cc2c(Cl)sc3ccc(Cl)cc23)n1	0.978
COc1ccc(CC2CCC(=NOC(=O)c3ccc(C(C)(C)C)cc3)CC2)cc1 (stereo not given)	1.01
O=C(Nc1ccc(F)c(Cl)c1)c1ccccc1O	0.743
COc1ccc(C(=O)NCc2csc3ccc(Cl)cc23)cc1OC	0.994

The value of normalized growth measured for the compound O=C1/C(=C/c2ccc(C(F)(F)F)cc2)COc2ccccc21 turned out to be 0.846

----------
test: chemical genetic growth profiling, strain panel (AID 1159580); conditions: S. cerevisiae deletion strains, growth OD, locus YHR079C, strain IRE1, hits give low values
Screen size: about 5,500 compounds; about 2,000 (36%) were called active. Another 18% or so got no clear call; they are omitted. This is one part of the list.
Entries and their normalized growth values follow.
Number only, no unit.

Below, each entry is followed by its recorded normalized growth result.
Compound	normalized growth
COc1cc2c(cc1-c1cc3cc4ccoc4cc3oc1=O)OCO2	1.01
C=C1C2CC[C@@]3(C)[C@H](c4ccoc4)OC(=O)C[C@]13O[C@H]1CC(O)C(C)(C)C(CC(=O)OC)[C@@]21C (some centres not stated)	0.973
Cc1cc(O)c(C=O)c2c1C(=O)Oc1c(C)c(O)c3c(c1O2)C(O)OC3=O (configuration not stated)	0.983

normalized growth measured on COc1ccc(C(=O)CC(=O)c2ccc(C(C)(C)C)cc2)cc1 = 0.984

// sample C/C=C/C(=O)N(CC)c1ccccc1C , its normalized growth was 1.02

normalized growth in this record for CCCCC[C@H](CC(=O)NO)C(=O)N[C@H](C(=O)N1CCC[C@H]1CO)C(C)C : 0.973

Notebook: COc1cc(OC)c(OC)cc1C=O , normalized growth read as 0.996

The compound C[C@@H](N)[C@@H](O)c1ccccc1 showed normalized growth equal to 1.02

----------
experiment: chemical genetic growth profiling, strain panel (AID 1159580); details: S. cerevisiae deletion strains, growth OD, locus YLR262C, strain YPT6, hits give low values
The whole screen tested about 5,500 compounds, of which about 2,000 (36%) were called active. Another 18% or so got no clear call; they are omitted. The list shows a part of the results.
Quantity: normalized growth

Consider the reported normalized growth for these molecules:
Molecule	normalized growth
COC(=O)CCCOc1ccc(Cl)cc1Cl	0.925 (inactive)
COC(=O)COc1ccc(C(C)=O)cc1	0.975 (inactive)
N[C@H](Cc1ccccc1)C(=O)O	1.04 (inactive)
C=C1C2CC[C@@]3(C)[C@H](c4ccoc4)OC(=O)C[C@]13O[C@H]1CC(=O)C(C)(C)C(CC(=O)OC)[C@@]21C (stereo partly drawn)	0.701 (inactive)

Per the records, this molecule ( COc1c2ccccc2nc2occc12 ) has normalized growth equal to 1.04 (inactive)

normalized growth in this record for COc1cc([C@H]2Oc3cc([C@H]4Oc5cc(O)cc(O)c5C(=O)[C@@H]4O)ccc3O[C@@H]2CO)ccc1O : 0.953 (inactive)

Memo: COc1cc(OC)c(OC)cc1C=O , reported normalized growth: 1.02 (inactive)

The reported value for NCC(CC(=O)O)c1ccc(Cl)cc1 (stereo not drawn) in terms of normalized growth is 1.08 (inactive)

Briefly, normalized growth measured for CC[C@H](CCC(C)[C@H]1CCC2C3CCC4C[C@@H](O)CC[C@]4(C)C3CC[C@@]21C)C(C)C (stereo partly drawn) : 1.02 (inactive)

Measured normalized growth of C=C1C2CCC3(C)C(c4ccoc4)OC(=O)CC13OC1CC(OC(C)=O)C(C)(C)C(CC(=O)OC)C12C (stereo not drawn) : 0.933 (inactive)

# molecule O=c1c2cc(NS(=O)(=O)c3ccc(Cl)cc3)ccc2oc2ncccc12 ; its normalized growth = 1.07 (inactive)

----------
assay: chemical genetic growth profiling, strain panel (AID 1159580); settings: S. cerevisiae deletion strains, growth OD, locus YGL248W, strain PDE1, hits give low values
Screen size: about 5,500 compounds; about 2,000 (36%) were called active. Inconclusive results (about 18%) are left out. This is one part of the list. Where a SMILES comes first, the peptide text is derived from it.
The compounds listed here are annotated with their normalized growth.
Just the number, please, no unit after it.

Worked examples follow.
Compound	normalized growth
CN1CC(CNC(=O)OCc2ccccc2)CC2c3cccc4c3c(cn4C)CC21 (centres undefined)	0.989
CCCCCC1C(=O)CCC1CC(=O)OC (centres undefined)	1.04
NC(N)=NCCC[C@@H](NC(=O)[C@@H](N)Cc1ccc(O)cc1)C(=O)O	1.01
C=C1C(C2(C)C=CC(=O)C(C)(C)C2CC(=O)OC)CC[C@@]2(C)[C@H](c3ccoc3)OC(=O)C3OC132 (some centres undefined)	0.995
NCCCCC(N)C(=O)NC(Cc1ccc(O)cc1)C(=O)NC(CCCCN)C(=O)O (stereo not drawn) (H-Lys-Tyr-Lys-OH; configuration not given here)	1.01

Switching to the query record.
Form field normalized growth, entry C=C1C2CC[C@@]3(C)[C@H](c4ccoc4)OC(=O)C[C@]13O[C@H]1CC(=O)C(C)(C)C(CC(=O)OC)[C@@]21C (some centres undefined) : 0.998

----------
assay: chemical genetic growth profiling, strain panel (AID 1159580);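 also: tested at 20 µM; growth read once vehicle control cultures reached saturation at 30 °C; 1 = growth at the plate median or of vehicle wells; lower values mean less growth of the strain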; settings: S. cerevisiae deletion strains, growth OD, locus YNL322C, strain KRE1, hits give low values
In all, about 5,500 compounds went through this assay and about 2,000 (36%) were called active. Not shown: some 18% with an inconclusive outcome. The list shows a part of the results.
The label 1 is reserved for normalized growth strictly under 1; 0 covers values equal to or above it.

Cpd Smiles	Class Label
COc1ccc(OCC(N)=O)cc1	0

--- query ---
normalized growth under 1? Item: Cc1nc2sccn2c(=O)c1CCN1CCC(=C(c2ccc(F)cc2)c2ccc(F)cc2)CC1
1

----------
experiment: chemical genetic growth profiling, strain panel (AID 1159580);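 also: tested at 20 µM; growth read once vehicle control cultures reached saturation at 30 °C; 1 = growth at the plate median or of vehicle wells; lower values mean less growth of the strain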; details: S. cerevisiae deletion strains, growth OD, locus YFR028C, strain CDC14
Hit rate of the full screen: of about 5,500 compounds, about 2,000 (36%) were called active. Not shown: some 18% with an inconclusive outcome. Cut-off read from the data, not from the text of the source: active = normalized growth mostly below about 0.91 (no sharp cut-off); inconclusive = no clear call, values can overlap the other calls; inactive = mostly above about 0.92. Some of the results follow.
Entry note: the call must match one of active, inactive

Please review the entries below; each comes with its answer.
Cpd Smiles	Class Label
O=C(Nc1ccc(F)c(Cl)c1)c1ccccc1O	active
COc1ccc(OC)c(-c2ccn[nH]2)c1OCc1ccccc1	inactive

Could you now look at the following compound, please?
Test call for this compound, please: O=C1/C(=C/c2ccc(C(F)(F)F)cc2)COc2ccccc21
inactive

----------
experiment: chemical genetic growth profiling, strain panel (AID 1159580);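 also: tested at 20 µM; growth read once vehicle control cultures reached saturation at 30 °C; 1 = growth at the plate median or of vehicle wells; lower values mean less growth of the strain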; conditions: S. cerevisiae deletion strains, growth OD, locus YBR231C, strain swc5, hits give low values
Out of some 5,500 compounds screened, about 2,000 (36%) were called active. About 18% were inconclusive and are not listed. Some of the results follow.
Parameter normalized growth: see the listing below.
Number, no unit, nothing else.

// worked examples, normalized growth included
Compound	Quantity	Reported Result
CCCCCC1C(=O)CCC1CC(=O)O (centres undefined)	normalized growth	1
COc1cc(OC)c(OC)cc1C=O	normalized growth	0.998
COC(=O)CCCOc1ccc(Cl)cc1Cl	normalized growth	0.964
COc1c(Cl)ccc(Cl)c1C(=O)O	normalized growth	0.968
C[C@@H]1CC2C3C[C@H](F)C4=CC(=O)C=C[C@]4(C)[C@@]3(F)[C@@H](O)C[C@]2(C)[C@@]1(O)C(=O)COC(=O)C(C)(C)C (some centres undefined)	normalized growth	0.98
CC(=O)Nc1nnc(S(N)(=O)=O)s1	normalized growth	1.01
O=c1cc(-c2cc(O)c(O)c(O)c2)oc2cc(O)cc(O)c12	normalized growth	0.909
C[C@H](CCC(=O)O)[C@H]1CCC2C3C(CC[C@@]21C)[C@@]1(C)CC[C@@H](O)C[C@H]1C[C@H]3O (some centres undefined)	normalized growth	1.03

Notebook: NCC(CC(=O)O)c1ccc(Cl)cc1 (centres undefined) , normalized growth read as 1.01
